- test_system: T1, human IL-17A (human, UniProt Q16552 24-155)
- T1 construct: Recombinant human IL-17A (Peprotech Cat. No. 200-17), disulfide-linked homodimer from E. coli; Biotinylated or RPE-labelled in some assays; also called hIL-17A; IL-17A-RPE (labelled)
- protocol: SPR (Biacore T200), direct setup: IL-17A amine-coupled on CM5, scFv as analyte
result_type: koff (s⁻¹)
Report as a plain number; the unit s⁻¹ is understood.

Would you please look over these solved cases?
>  <binder>
A2 (humanized anti-IL-17A scFv, STR graft of 27-07-G02) (scFv, VL-linker-VH; also called 27-07-G02-sc02) scFv: DIQMTQSPSSLSASVGDRVTITCQASQTINYWLAWYQQKPGKPPKLLIYRASTLASGVPSRFSGSGSGTDFTLTISSLQPEDFATYYCQNYYYSTSRSYGFGGGTKLTVLGGGGGSGGGGSGGGGSGGGGSEVQLVESGGGLVKPEGSLRLSCAASGFSFSSDYWMCWVRQAPGKGLEWIACIYAGDVDDTDYASWARGRFTISRDNSKNTVYLQMNSLRAEDTAVYYCARVDGFDITYFDLWGQGTLVTVSS

>  <experimental_result>
5.92e-05

$$$$
>  <binder>
PRO571 (humanized anti-IL-17A scFv, CDR graft of 27-31-C04) (scFv, VL-linker-VH; also called 27-31-C04-sc01; 27_31_C04_sc01) scFv: DIQMTQSPSSLSASVGDRVTITCQASESIYRYLSWYQQKPGKAPKLLIYLASTLTSGVPSRFSGSGSGTDFTLTISSLQPEDFATYYCQSNFGTASTTYYNTFGGGTKLTVLGGGGGSGGGGSGGGGSGGGGSEVQLVESGGGLVQPGGSLRLSCAASGFSFSGFYYMCWVRQAPGKGLEWIGCIDTGDGTTYYASWAKGRFTISRDNSKNTVYLQMNSLRAEDTAVYYCARDAAYGGYAYPAHGMDLWGQGTLVTVSS

>  <experimental_result>
4.55e-05

$$$$
>  <binder>
PRO592 (humanized anti-IL-17A scFv, STR graft of 27-31-C04) (scFv, VL-linker-VH; also called 27-31-C04-sc02; 27_31_C04_sc02) scFv: DIQMTQSPSSLSASVGDRVTITCQASESIYRYLSWYQQKPGKAPKLLIYLASTLTSGVPSRFSGSGSGTDFTLTISSLQPEDFATYYCQSNFGTASTTYYNTFGGGTKLTVLGGGGGSGGGGSGGGGSGGGGSEVQLVESGGGLVQPGGSLTLSCAASGFSFSGFYYMCWVRQAPGKGLEWIGCIDTGDGTTYYASWAKGRFTISRDNSKNTVYLQMNSLRAEDTAVYYCARDAAYGGYAYPAHGMDLWGPGTLVTVSS

>  <experimental_result>
4.07e-05

$$$$

Continue with the binder presented below.
Supply recorded koff for A1 (humanized anti-IL-17A scFv, CDR graft of 27-07-G02) (scFv, VL-linker-VH; also called 27-07-G02-sc01; 27_07_G02_sc01) scFv: DIQMTQSPSSLSASVGDRVTITCQASQTINYWLAWYQQKPGKAPKLLIYRASTLASGVPSRFSGSGSGTDFTLTISSLQPEDFATYYCQNYYYSTSRSYGFGGGTKLTVLGGGGGSGGGGSGGGGSGGGGSEVQLVESGGGLVQPGGSLRLSCAASGFSFSSDYWMCWVRQAPGKGLEWIGCIYAGDVDDTDYASWARGRFTISRDNSKNTVYLQMNSLRAEDTAVYYCARVDGFDITYFDLWGQGTLVTVSS here.
0.000102
